tested on: NCI/ADR-RES; experiment: Growth inhibition of human NCI/ADR-RES cells assessed as cell growth at 10^-8 M incubated for 48 hrs by sulforhodamine B assay relative to control; type: functional; settings: read-out: Activity
MEASUREMENT_TYPE: growth at 0.01 µM

C#C[C@@]1(O)[C@@H](CO)O[C@@H](n2cc(Cl)c3c(N)ncnc32)[C@@H]1O
77 to 82%
C#C[C@@]1(O)[C@@H](CO)O[C@@H](n2cc(I)c3c(N)ncnc32)[C@@H]1O
86 to 88%

Now consider a different compound.
Supply growth at 0.01 µM value. Item: C#C[C@@]1(O)[C@@H](CO)O[C@@H](n2cc(Br)c3c(N)ncnc32)[C@@H]1O
80 to 90%
